Some compounds, each annotated with its measured pIC50.
# Tested on: macrophages
# experimentSummary: Macrophage cytotoxicity (MTT assay, 72 h)
# Type: cell-based, BALB/c mice
# recordedConditions: Mus musculus, IC50 ± SD
pIC50: −log10 of the molar value.

-- ask Identify pIC50 associated with the compound CC(C)c1cccc(C(C)CC=NNC(=O)c2cc3ccccc3cc2O)c1 (stereo not drawn)
-- reply < 4.27

-- ask Output pIC50 of O=C(N/N=C/C=C/c1ccccc1)c1ccccc1F
-- reply < 4.13

-- ask Read the entry CN(C)c1ccc(/C=C/C=N/NC(=O)c2ccccc2O)cc1 and write its reported pIC50.
-- reply < 4.37

-- ask Return pIC50 (reported value) for this compound: O=C(N/N=C/C=C/c1ccccc1)c1ccccc1O
-- reply 4.36

###

Catalogue of melting point values

Below, 2 molecules whose answers are already recorded.
O=C(N/N=C/C=C/c1ccccc1)c1cccc(O)c1 [Compound 2e]	249 to 250 °C
CN(C)c1ccc(/C=C/C=N/NC(=O)c2cccc(F)c2)cc1 [Compound 2j]	208 °C

Let us move to another entry and its melting point.
-- ask Provide measured melting point value, entry: CC(C)Cc1ccc(CC(C)/C=N/NC(=O)c2ccncc2)cc1 (stereo not drawn) [Compound 3g]
-- reply 122 to 123 °C

###

Entries and their measured IC50 follow.
# Test system: L. major amastigotes
# experimentSummary: Leishmania major amastigotes in peritoneal macrophages (percentage of infected macrophages, 72 h)
# Assay type: cell-based
# recordedConditions: Macrophage, IC50 ± SD

Please review the entries below; each comes with its answer.
CN(C)c1ccc(/C=C/C=N/NC(=O)c2cccc(O)c2)cc1	> 42.7 µM
O=C(N/N=C/C=C/c1ccccc1)c1ccccc1F	> 74.6 µM
CC(C)c1cccc(C(C)C/C=N/NC(=O)c2cccc(O)c2)c1 (stereo not shown)	> 61.7 µM

-- ask Give a short answer stating reported IC50 for CC(C)c1cccc(C(C)CC=O)c1 (stereo not shown) [Florhydral^TM, 3-(3-isopropylphenyl)butanal, reference compound] .
-- reply > 105 µM

-- ask Annotate the molecule O=C(N/N=C/C=C/c1ccccc1)c1cccc(F)c1 with its measured IC50.
-- reply > 49.2 µM

-- ask Return the recorded IC50 value; entry: CC(C)Cc1ccc(CC(C)/C=N/NC(=O)c2ccccc2O)cc1 (stereo not shown)
-- reply 58.6 µM

-- ask Identify IC50 associated with the molecule CC(C)Cc1ccc(CC(C)/C=N/NC(=O)c2cc3ccccc3cc2O)cc1 (stereo not shown)
-- reply > 51.5 µM

-- ask Please look at this molecule and report its IC50: CN(C)c1ccc(/C=C/C=N/NC(=O)c2ccccc2O)cc1
-- reply > 42.7 µM

-- ask Return the recorded IC50 value; entry: O=C/C=C/c1ccccc1
-- reply > 151 µM

-- ask Give IC50 for the following molecule: CN(C)c1ccc(/C=C/C=N/NC(=O)c2ccccc2F)cc1
-- reply > 64.2 µM

###

# Tested on: L. major promastigotes
# experimentSummary: Leishmania major promastigote assay (MTT, 72 h)
# Type: cell-based
# recordedConditions: Leishmania major, 72 h, IC50 ± SD, MTT
pIC50: −log10 of the molar value.
Known pIC50 of a selection of compounds

Worked examples, 4 compounds total:
CC(C)Cc1ccc(CC(C)/C=N/NC(=O)c2ccccc2F)cc1 (centres unmarked)	< 4.23
O=C(N/N=C/C=C/c1ccccc1)c1ccccc1F	< 4.13
CN(C)c1ccc(/C=C/C=N/NC(=O)c2ccccc2F)cc1	< 4.19
CC(C)Cc1ccc(CC(C)/C=N/NC(=O)c2cccc(Cl)c2)cc1 (centres unmarked)	> 4.52

// next item, pIC50 requested
-- ask Look up and report measured pIC50 for this entry: O=C(N/N=C/C=C/c1ccccc1)c1cccc(F)c1
-- reply < 4.31

All values here come from paper PMC11672724.
